measurement.protocol: folding enthalpy; higher = less favourable; fluorescence melt of hairpins on a sequencing array, two-state fit
condition.details: sodium 0.088 M
# key: entry, value: folding enthalpy
Respond with the bare value in kcal/mol.

Consider the following illustrative entries.
{"chain.sequence": "CGCTGGAAACAGCG (((((....)))))", "parameter": "folding enthalpy", "experimental.value": -31.2}
{"chain.sequence": "GGGCGACGAAAGTCCCCC (((.(((....))).)))", "parameter": "folding enthalpy", "experimental.value": -31.2}
{"chain.sequence": "GTGAACCGAAAGGTACAC (((.(((....))).)))", "parameter": "folding enthalpy", "experimental.value": -35.7}
{"chain.sequence": "GTGCACGAAAGTGGGCAC ((((((....)))..)))", "parameter": "folding enthalpy", "experimental.value": -22.6}
{"chain.sequence": "GGTCTTCGAAAGAAAACC (((.(((....))).)))", "parameter": "folding enthalpy", "experimental.value": -25.7}

// next item, folding enthalpy requested
Query :: Consider the sequence shown here: GTGGCCGAAAGGCACAC ((((((....))).))) What is its recorded folding enthalpy?
Result :: -15.1

---

# key: entry, value: Tm
measurement.protocol: melting temperature; fluorescence melt of hairpins on a sequencing array, two-state fit, raised by 9.35 °C to match UV melts
condition.details: sodium 0.088 M
Respond with the bare value in °C.

Consider the following illustrative entries.
{"chain.sequence": "GCTTACGAAAGTACGAGC ((((((....)))..)))", "unit.abbreviation": "°C", "Tm": 32.1}
{"chain.sequence": "GCAACCGAAAGGTCGTGC ((((((....)))..)))", "unit.abbreviation": "°C", "Tm": 38.1}
{"chain.sequence": "GGACCTGGAAACAGGTTC (.(((((....))))).)", "unit.abbreviation": "°C", "Tm": 52.7}
{"chain.sequence": "GGCGACGAAAGTCCCGCC ((((((....)))..)))", "unit.abbreviation": "°C", "Tm": 54.8}
{"chain.sequence": "GACATGGAAACATGTC ((((((....))))))", "unit.abbreviation": "°C", "Tm": 56}

Query :: Consider the sequence shown here: GGTGAGGGAAACCTCGCC ((.((((....)))).)) What is its recorded Tm?
Result :: 58.1

Query :: Try this sequence too: GCACCAGGAAACTGATGC (((.(((....))).)))
Result :: 45

Query :: Try this sequence too: GTACGAGAAATCGTAC ((((((....))))))
Result :: 54.3

Query :: Try this sequence too: GATCTGATAGCAGATC ((((((....))))))
Result :: 46.8

Query :: Try this sequence too: GGTCTCGGAAACGAGGCC ((.((((....)))).))
Result :: 62.2

Query :: Try this sequence too: GACGGAGCGAAAGCTGTC (((..(((....))))))
Result :: 41.8

Query :: Try this sequence too: GATCCCAGGCGGGATC ((((((....))))))
Result :: 61.1

---

measurement.protocol: folding enthalpy; higher = less favourable; fluorescence melt of hairpins on a sequencing array, two-state fit
condition.details: sodium 0.088 M
parameter: folding enthalpy (kcal/mol)
Respond with the bare value in kcal/mol.

Consider the following illustrative entries.
{"chain.sequence": "GCGGACCACCGC ((((....))))", "experimental.value": -24.2}
{"chain.sequence": "GCGATCAATCGC ((((....))))", "experimental.value": -24.9}
{"chain.sequence": "GACTCAGGAAACTGAATC ((.((((....)))).))", "experimental.value": -16.3}
{"chain.sequence": "GATCGATGGATCGATC ((((((....))))))", "experimental.value": -36.5}
{"chain.sequence": "GCTAACGAAAGTTAAAGC ((((((....)))..)))", "experimental.value": -18.5}
{"chain.sequence": "GGGGCAGGAAACTGTCCC (((.(((....))).)))", "experimental.value": -39.4}
{"chain.sequence": "GTTAGCGAAAGCTTAAC ((((((....))).)))", "experimental.value": -13.9}
{"chain.sequence": "GGAGACGAAAGTCCTCC ((((((....))).)))", "experimental.value": -25}
{"chain.sequence": "GGTGACGAAAGTCGTACC ((((((....)))..)))", "experimental.value": -15.6}
{"chain.sequence": "GATGCCGGAAACGACATC ((((.((....)).))))", "experimental.value": -38.3}

Query :: Consider the sequence shown here: TCAGTGAAAACTGA (((((....))))) What is its recorded folding enthalpy?
Result :: -16.9

Query :: Try this sequence too: GATCGGAGCCCGATC ((((((...))))))
Result :: -31.2

Query :: Try this sequence too: GCGTAAGGAAACTTACGC (((((((....)))))))
Result :: -44.5

Query :: Try this sequence too: GTGCAATCGAAAGATCAC (((..(((....))))))
Result :: -14

Query :: Try this sequence too: GTCGACGGAAACGTCGGC (.(((((....))))).)
Result :: -22.3

---

# key: entry, value: Tm
measurement.protocol: melting temperature; fluorescence melt of hairpins on a sequencing array, two-state fit, raised by 9.35 °C to match UV melts
condition.details: sodium 0.088 M
Respond with the bare value in °C.

Consider the following illustrative entries.
{"chain.sequence": "GAACCCGAAAGGGCCTTC ((((((....)))..)))", "unit.abbreviation": "°C", "Tm": 34.6}
{"chain.sequence": "GTGCGACGAAAGTCTCAC (((.(((....))).)))", "unit.abbreviation": "°C", "Tm": 50.5}

Query :: Consider the sequence shown here: GACTTCGGAAACGAGGTC (((.(((....))).))) What is its recorded Tm?
Result :: 49.9

Query :: Try this sequence too: GGAGCACGAAAGTGTTCC (((.(((....))).)))
Result :: 58.8

Query :: Try this sequence too: GTTAGGGGAAACCCTGAC ((.((((....)))).))
Result :: 45.6

---

measurement.protocol: folding enthalpy; higher = less favourable; fluorescence melt of hairpins on a sequencing array, two-state fit
condition.details: sodium 0.088 M
parameter: folding enthalpy (kcal/mol)
Respond with the bare value in kcal/mol.

Consider the following illustrative entries.
{"chain.sequence": "GGCCTTCGAAAGAATGCC (((.(((....))).)))", "unit.abbreviation": "kcal/mol", "folding enthalpy": -33.1}
{"chain.sequence": "GATCTATTTCTAGATC ((((((....))))))", "unit.abbreviation": "kcal/mol", "folding enthalpy": -30.2}
{"chain.sequence": "GCGCTTACGAAAGTACGC (((..(((....))))))", "unit.abbreviation": "kcal/mol", "folding enthalpy": -21.4}
{"chain.sequence": "GCGTGCGAAAGCAATCGC ((((((....)))..)))", "unit.abbreviation": "kcal/mol", "folding enthalpy": -22.6}
{"chain.sequence": "GCAGAACGAAAGTTTGC (((.(((....))))))", "unit.abbreviation": "kcal/mol", "folding enthalpy": -25.9}

Query :: Consider the sequence shown here: GCTTACGAAAGTACGAGC ((((((....)))..))) What is its recorded folding enthalpy?
Result :: -20.3

Query :: Try this sequence too: GGGTAGGGAAACCTACTC (.(((((....))))).)
Result :: -18.7

Query :: Try this sequence too: GCCCCCGGAAACAGGGGC (((((.(....).)))))
Result :: -35

Query :: Try this sequence too: GGAAGAGGAAACTCTCCC ((.((((....)))).))
Result :: -18.2

---

# key: entry, value: folding enthalpy
measurement.protocol: folding enthalpy; higher = less favourable; fluorescence melt of hairpins on a sequencing array, two-state fit
condition.details: sodium 0.088 M
Respond with the bare value in kcal/mol.

{"chain.sequence": "GATCGGGGACCCGATC ((((((....))))))", "folding enthalpy [kcal/mol]": -45.9}
{"chain.sequence": "GCGTAGCGAAAGCAACGC ((((.((....)).))))", "folding enthalpy [kcal/mol]": -21.1}
{"chain.sequence": "GATCGATCGATCGATC ((((((....))))))", "folding enthalpy [kcal/mol]": -57.6}

Query :: Consider the sequence shown here: GGGTGAGCGAAAGCTCCC (((..(((....)))))) What is its recorded folding enthalpy?
Result :: -12.6

Query :: Try this sequence too: GTCATAGGAAACCATGAC (((((.(....).)))))
Result :: -27.6
